Parameter inhibition of SARS-CoV-2 cytopathic effect: see the listing below.
System: Vero E6 infected with SARS-CoV-2
Assay: inhibition of SARS-CoV-2 cytopathic effect; higher = more antiviral protection, active = above 15
Conditions: 1 nM; 48 h
parameter-measured: inhibition of SARS-CoV-2 cytopathic effect (%)

compound	numeric-value
Cc1ccc(O)c(N=Nc2ccccc2)n1	-2.81
COc1cc(OC)c(C(=O)CCCN2CCCC2)c(OC)c1	1.62
c1ccc(C2CN3CCSC3=N2)cc1 (stereo unspecified)	0.71
CN1CCC[C@@H](CC2c3ccccc3Sc3ccccc32)C1 (racemic)	-0.25
Nc1ncnc2c1c(-c1ccc(Oc3ccccc3)cc1)nn2C1CCCC1	3.63
CN(C)c1nc(N)c(C(=O)Nc2cccnc2)nc1Cl	1.28
CN1CCC(c2c[nH]c3ccc(O)cc23)CC1	-0.56
Cc1ccnc2c1NC(=O)c1cccnc1N2C1CC1	-0.06
CNCCCN1c2ccccc2CCc2ccccc21	-0.7
O=C(O)CCC(=O)c1ccc(-c2ccccc2)cc1	-1.6
CSCC[C@H](NC(=O)[C@H](CC(C)C)NC(=O)[C@@H](Cc1c[nH]c2ccccc12)NC(=O)[C@H](Cc1ccccc1)N(C)C(=O)[C@@H](Cc1c[nH]c2ccccc12)NC(=O)[C@@H](N)CCCNC(=N)N)C(N)=O	2.09

----------
Entries and their inhibition of SARS-CoV-2 cytopathic effect values follow.
System: Vero E6 infected with SARS-CoV-2
Assay: inhibition of SARS-CoV-2 cytopathic effect; higher = more antiviral protection, active = above 15
Conditions: 10000 nM; 48 h
parameter-measured: inhibition of SARS-CoV-2 cytopathic effect (%)

molecule	target-or-test-system	numeric-value
C[C@@H]([C@@H](O)c1ccc(O)cc1)N1CCC(O)(c2ccccc2)CC1 [traxoprodil]	Vero E6 infected with SARS-CoV-2	-1.06
Nc1ccc(S(=O)(=O)Nc2ccnn2-c2ccccc2)cc1 [sulfaphenazole]	Vero E6 infected with SARS-CoV-2	-0.83
CC(=O)O[C@@H]1CC[C@@]2(C)[C@@H](CC[C@]3(C)[C@@H]2C(=O)C=C2[C@@H]4[C@@H](C)[C@H](C)CC[C@]4(C)CC[C@]23C)[C@@]1(C)C(=O)O [acetyl-11-keto-beta-boswellic-acid]	Vero E6 infected with SARS-CoV-2	-0.995
COc1cc(OC)c(/C=C/S(=O)(=O)Cc2ccc(OC)c(OP(=O)(O)O)c2)c(OC)c1 [briciclib]	Vero E6 infected with SARS-CoV-2	-1.99
COc1ccc(CCO[C@@H]2CCCC[C@H]2N2CC[C@@H](O)C2)cc1OC [vernakalant]	Vero E6 infected with SARS-CoV-2	-1.63
CS(=O)(=O)Nc1ccc(-c2coc3cc(OCc4cccc(C(=O)O)c4)ccc3c2=O)cc1	Vero E6 infected with SARS-CoV-2	-0.08
CC(C)Oc1ccc(-c2nn([C@@H](C)c3oc4ccc(F)cc4c(=O)c3-c3cccc(F)c3)c3ncnc(N)c23)cc1F	Vero E6 infected with SARS-CoV-2	-3.52

----------
Tested on: Vero E6 infected with SARS-CoV-2
Experiment: inhibition of SARS-CoV-2 cytopathic effect; higher = more antiviral protection, active = above 15
Conditions: 100 nM; 48 h
parameter-measured: inhibition of SARS-CoV-2 cytopathic effect (%)

compound	units-symbol	numeric-value
COc1cc(Br)c(Nc2nc(-c3c(C)nc4ncccn34)cs2)c(Br)c1	%	1.74
CN(C)CC[C@H](CSc1ccccc1)Nc1ccc(S(=O)(=O)NC(=O)c2ccc(N3CCN(Cc4ccccc4-c4ccc(Cl)cc4)CC3)cc2)cc1[N+](=O)[O-]	%	-6.74
Cc1c(C)c2c(c(C)c1OC(=O)CCC(=O)O)CC[C@@](C)(CCC[C@H](C)CCC[C@H](C)CCCC(C)C)O2 [D-alpha-tocopheryl-succinate]	%	-7.06
CCOc1ccc(-n2c([C@@H](C)N(Cc3cccnc3)C(=O)Cc3ccc(OC(F)(F)F)cc3)nc3ncccc3c2=O)cc1 (racemic)	%	0.96
O=c1[nH]cnc2c1ncn2[C@H]1CC[C@@H](CO)O1	%	2.16
Cc1cc2c(C(C)C)c(O)c(O)c(C=O)c2c(O)c1-c1c(C)cc2c(C(C)C)c(O)c(O)c(C=O)c2c1O	%	-0.64
NC(=O)Nc1sc(-c2ccc(F)cc2)cc1C(N)=O	%	-0.35
CC1(C)CC(O)CC(C)(C)N1[O]	%	-0.66
CC(=O)O[C@]1(C(C)=O)CC[C@H]2[C@@H]3C[C@H](C)C4=CC(=O)C=C[C@]4(C)[C@@]3(F)[C@@H](O)C[C@@]21C [fluorometholone-acetate]	%	-0.18
Cc1cc(/C=C/C#N)cc(C)c1Nc1ccnc(Nc2ccc(C#N)cc2)n1	%	-2.82
CCC(=O)N[C@@H]1Cc2ccccc2[C@H](c2ccccc2)C1	%	2.79
CC1(C)CC(Oc2ccc(-c3ccc(-c4cn[nH]c4)cc3O)nn2)CC(C)(C)N1	%	2.2
O=C(CN1C(=O)C2(CCCC2)NC[C@H]1c1cc(F)cc(F)c1)Nc1ccc2c(c1)C[C@@]1(C2)C(=O)Nc2ncccc21	%	-8.42
CC1=NN(c2ccccc2)C(=O)C1	%	-0.76
C=C[C@@H]1C[C@]1(NC(=O)[C@@H]1C[C@@H]2CN1C(=O)[C@H](C(C)(C)C)NC(=O)O[C@@H]1C[C@H]1CCCCCc1nc3ccc(OC)cc3nc1O2)C(=O)NS(=O)(=O)C1CC1	%	-2.52
CO[C@H]1CC=C2CCN3CCC4=C(CC(=O)OC4)[C@]23C1	%	1.32
Cn1nc(C(C)(C)C)cc1C(=O)N[C@@H](Cc1cccc(Cl)c1)C(=O)NCC#N	%	-0.47
